Cited source for all entries: patent US20240327535A1

- study.system: T1, extracellular domain of human BCMA (human, UniProt Q02223 1-54)
- T1 construct: amine-linked to Octet AR2G tips; also called hsBCMA; BCMA (human)
- T1 sequence: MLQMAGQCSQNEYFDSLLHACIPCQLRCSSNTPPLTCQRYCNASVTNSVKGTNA
- protocol.summary: Octet BLI; Fab 200 nM
reported.endpoint: pKd
Just the number, please; pKd means minus log10 of the concentration in mol/L.

Query: pKd; subject: AB200-R1a-Fab_VH49 (Fab, V domains shown) VH: QVQLVQSGAEVKKPGSSVKVSCKASGGTFSNYWIHWVRQAPGQGLEWMGASYRGHSDTYYNQKFKGRVTITADKSTSTAYMELSSLRSEDTAVYYCARGAIYHGYDVIDNWGQGTLVTVSS VL: DIQMTQSPSSLSASVGDRVTITCSATQDISNYLNWYQQKPGKAPKLLIYFTSNLQSGVPSRFSGSGSGTDFTLTISSLQPEDFATYYCQQYRKLPWTFGQGTKLEIKR
8.17
